src = ChEMBL document CHEMBL4706482

# procedure.details: Protein binding in rat plasma
# Format: ADME, cell-free
# measurement.context: read-out: PPB (converted)
readout: fraction unbound
Answer with the value's number alone.

Request: I would be grateful if you could share the reported fraction unbound for Cc1nc(CN(C)[C@H]2CCCc3cccnc32)cc(N2CCN(C)CC2)n1 .
Result: 0.18

###

# study.system: C-X-C chemokine receptor type 4 (Homo sapiens, UniProt P61073)
# Sequence (P61073 whole entry): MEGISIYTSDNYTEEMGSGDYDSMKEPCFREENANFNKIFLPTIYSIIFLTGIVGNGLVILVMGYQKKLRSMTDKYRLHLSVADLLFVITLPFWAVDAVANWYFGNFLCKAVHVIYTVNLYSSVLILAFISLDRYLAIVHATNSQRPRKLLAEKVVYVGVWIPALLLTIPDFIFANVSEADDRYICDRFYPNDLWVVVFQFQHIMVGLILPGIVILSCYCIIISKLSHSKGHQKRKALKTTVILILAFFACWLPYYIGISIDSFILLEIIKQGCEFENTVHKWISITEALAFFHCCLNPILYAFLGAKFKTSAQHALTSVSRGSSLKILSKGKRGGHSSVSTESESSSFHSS
# procedure.details: Antagonist activity at CXCR4 in human HPBALL cells assessed as inhibition of APC-conjugate clone 12G5 antibody signal incubated for 3 hrs by flow cytometric analysis
# Format: cell-based
readout: IC50 (nM)
Provide the reading as a plain figure in nM.

INSERT INTO results (compound, study_system, measured_value) VALUES
  ('CCNc1nc(CN(C)C2CCCc3cccnc32)cc(N2CCN(C)CC2)n1 (racemic)', 'C-X-C chemokine receptor type 4 (Homo sapiens, UniProt P61073)', 105),
  ('Cc1nc(CN(C)[C@H]2CCCc3cccnc32)cc(N2CCC(N3CCOCC3)CC2)n1', 'C-X-C chemokine receptor type 4 (Homo sapiens, UniProt P61073)', 101),
  ('CN1CCN(c2cc(CN(C)C3CCCc4cccnc43)nc(N)n2)CC1 (racemic)', 'C-X-C chemokine receptor type 4 (Homo sapiens, UniProt P61073)', 23),
  ('CCN(Cc1cc(N2CCN(C)CC2)nc(C)n1)C1CCCc2cccnc21 (racemic)', 'C-X-C chemokine receptor type 4 (Homo sapiens, UniProt P61073)', 17),
  ('Cc1nc(CN(C)C2CCCc3cccnc32)cc(N2CCN(C)CC2)n1 (racemic)', 'C-X-C chemokine receptor type 4 (Homo sapiens, UniProt P61073)', 12),
  ('COc1nc(CN(C)C2CCCc3cccnc32)cc(N2CCN(C)CC2)n1 (racemic)', 'C-X-C chemokine receptor type 4 (Homo sapiens, UniProt P61073)', 25);

Request: I would be grateful if you could share the reported IC50 for CN1CCN(c2cc(CN(C)C3CCCc4cccnc43)nc(C3CC3)n2)CC1 (racemic) .
Result: 23

Request: I would be grateful if you could share the reported IC50 for CC(C)c1nc(CN(C)C2CCCc3cccnc32)cc(N2CCN(C)CC2)n1 (racemic) .
Result: 256

Request: I would be grateful if you could share the reported IC50 for Cc1nc(CN(C)[C@H]2CCCc3cccnc32)cc(N2CCN(C)C[C@H]2C)n1 .
Result: 21
